tested on: HCT-116; assay: NCI tumour cell line growth inhibition, 48 h
Active and inactive are the calls of the source. Cut-off read from the data, not from the text of the source: active = GI50 up to about 1.1 µM and inactive = higher.
// allowed return values: active, inactive

{"compound": "COC(=O)/C=C1\\CCCN1CCc1cc2c(cc1CC#N)OCO2", "class.label": "inactive"}
{"compound": "O=C(Cc1cc[n+]([O-])cc1)C(=O)Nc1cc(Cl)c(Cl)cc1Cl", "class.label": "inactive"}
{"compound": "NC(=O)N/N=C/C(/C=N/NC(N)=O)[N+](=O)[O-]", "class.label": "inactive"}
{"compound": "O=C1N(Cc2ccccc2)C2CSCC2N1Cc1ccccc1 (centres undefined)", "class.label": "inactive"}
{"compound": "Cc1ccc(N)cc1.O=S(=O)(O)/C(=C\\c1ccccc1)c1ccccc1", "class.label": "inactive"}

Ask: Assay result, entry "O=C(Nc1ccccc1)c1cc(S(=O)(=O)Nc2n[nH]c(=O)[nH]2)c(SSc2cc(Cl)c(C(=O)Nc3ccccc3)cc2S(=O)(=O)Nc2n[nH]c(=O)[nH]2)cc1Cl" — outcome?
Reply: inactive

Ask: Fill in: this test's call for C/C=C/[C@H]1O[C@@](O)([C@@H](C)[C@H](O)[C@H](C)[C@H]2OC(=O)/C(OC)=C/C(C)=C/[C@@H](C)[C@@H](O)[C@@H](CC)[C@@H](O)[C@H](C)C/C(C)=C/C=C/[C@@H]2OC)C[C@H](OC2CC(O)C(OC(N)=O)C(C)O2)[C@@H]1C (some centres undefined) is ___
Reply: active

Ask: Dear colleague, could you share the recorded outcome for "Nc1nc[n+](Cc2ccccc2)c2ncn(Cc3ccccc3)c12" when you have a moment?
Reply: inactive
